biological target: NK3 (Homo sapiens, UniProt P29371); assay: Signal transduction (ST), intracellular Ca++ (FLIPR), NK3; type: cell-based; conditions: antagonist, read-out: NK3 pIC50 (converted)
Sequence (P29371 whole entry): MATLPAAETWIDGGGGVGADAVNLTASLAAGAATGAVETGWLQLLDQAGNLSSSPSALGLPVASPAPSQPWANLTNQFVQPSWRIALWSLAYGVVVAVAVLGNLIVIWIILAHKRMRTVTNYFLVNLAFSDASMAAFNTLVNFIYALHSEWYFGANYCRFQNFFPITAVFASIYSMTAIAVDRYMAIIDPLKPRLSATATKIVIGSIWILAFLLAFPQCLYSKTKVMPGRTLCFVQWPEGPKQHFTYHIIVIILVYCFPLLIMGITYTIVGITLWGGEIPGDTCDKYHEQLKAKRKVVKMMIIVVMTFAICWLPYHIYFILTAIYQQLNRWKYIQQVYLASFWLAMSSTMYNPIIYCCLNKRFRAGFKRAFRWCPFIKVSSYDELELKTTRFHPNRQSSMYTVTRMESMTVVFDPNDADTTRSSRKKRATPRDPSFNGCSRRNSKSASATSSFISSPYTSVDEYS
Here, each record is paired with measured IC50 data.

| compound | IC50 |
| --- | --- |
| O=C(c1cc(C(F)(F)F)cc(C(F)(F)F)c1)N1CC[C@H](N2CCC3(CC2)CCN(S(=O)(=O)c2c(Cl)sc(Cl)c2Br)CC3)C[C@H]1Cc1ccccc1 [Compound 99] | > 10 µM |
| CC12CCC(C(=O)N3CCC4(CC3)CCN([C@H]3CCN(C(=O)c5cc(C(F)(F)F)cc(C(F)(F)F)c5)[C@H](Cc5ccccc5)C3)CC4)(OC1=O)C2(C)C (stereo partly drawn) [Compound 61] | > 10 µM |
| CC(C)CN1CCC2(CCN([C@@H]3CCN(C(=O)c4cc(C(F)(F)F)cc(C(F)(F)F)c4)[C@H](Cc4ccccc4)C3)CC2)CC1=O [Compound 193] | 5.75 µM |
| CS(=O)(=O)c1ccccc1S(=O)(=O)N1CCC2(CCN([C@H]3CCN(C(=O)c4cc(C(F)(F)F)cc(C(F)(F)F)c4)[C@H](Cc4ccccc4)C3)CC2)CC1 [Compound 125] | 6.92 µM |
| O=C(c1cc(C(F)(F)F)cc(C(F)(F)F)c1)N1CC[C@H](N2CCC3(CC2)CCN(S(=O)(=O)c2ccc(C(F)(F)F)cc2)CC3)C[C@H]1Cc1ccccc1 [Compound 117] | > 10 µM |
| O=C(c1cc(C(F)(F)F)cc(C(F)(F)F)c1)N1CC[C@H](N2CCC3(CC2)CCN(S(=O)(=O)c2cc(Cl)ccc2Cl)CC3)C[C@H]1Cc1ccccc1 [Compound 110] | 5.13 µM |
